- Test system: A549
- procedure summary: cells
- measurement setup: Homo sapiens, A549, 24 h
- Description: Antiproliferative activity against human A549 cells assessed as reduction in cell viability after 24 hrs by MTT assay
Exercise: state measured log10(IC50) for each of the compounds provided.
The common logarithm of IC50 in µM is what is listed.

Past entries and their recorded results:
COc1cc(C(=O)N2N=C(c3ccccc3)CC2c2ccc3c(c2)OCO3)cc(OC)c1OC (stereo not given); 0.34
COc1ccc(C2=NN(C(=O)c3ccc(F)cc3)C(c3ccc4c(c3)OCO4)C2)cc1 (stereo not given); 0.03
CCOc1ccc(C2=NN(C(=O)c3cc(OC)c(OC)c(OC)c3)C(c3ccc4c(c3)OCO4)C2)cc1 (stereo not given); -1.05
COc1cc(C2=NN(C(=O)c3ccc(F)cc3)C(c3ccc4c(c3)OCO4)C2)cc(OC)c1OC (stereo not given); -0.11
COc1cc(C(=O)N2N=C(c3ccc(F)cc3)CC2c2ccc3c(c2)OCO3)cc(OC)c1OC (stereo not given); -0.12

// for each compound in input: emit log10(IC50)
1. COc1cc(C2=NN(C(=O)c3ccc(Cl)cc3)C(c3ccc4c(c3)OCO4)C2)cc(OC)c1OC (stereo not given)
2. COc1cccc(C2=NN(C(=O)c3cc(OC)c(OC)c(OC)c3)C(c3ccc4c(c3)OCO4)C2)c1 (stereo not given)
3. COc1ccc(C2=NN(C(=O)c3cc(OC)c(OC)c(OC)c3)C(c3ccc4c(c3)OCO4)C2)cc1 (stereo not given)
4. COc1ccc(C2=NN(C(=O)c3cc(OC)c(OC)c(OC)c3)C(c3ccc4c(c3)OCO4)C2)cc1OC (stereo not given)
5. COc1ccc(C2=NN(C(=O)c3ccc(Br)cc3)C(c3ccc4c(c3)OCO4)C2)cc1OC (stereo not given)
6. COc1cc(C(=O)N2N=C(c3ccc(Br)cc3)CC2c2ccc3c(c2)OCO3)cc(OC)c1OC (stereo not given)

Response:
0.63
-1.05
-1.15
-1.10
0.50
0.62

---

- system tested: Tubulin (Bos taurus, UniProt Q6B856+Q862L2+Q862F3)
- procedure summary: Inhibition of bovine brain tubulin polymerization after 20 mins by turbidimetric analysis
Exercise: state measured log10 IC50 for each of the compounds provided.
The common logarithm of IC50 in µM is what is listed.

COc1ccc(C2=NN(C(=O)c3ccc(Br)cc3)C(c3ccc4c(c3)OCO4)C2)cc1OC (centres undefined); 1.34

// for each compound in input: emit log10 IC50
1. COc1cc(C(=O)N2N=C(c3cc(OC)c(OC)c(OC)c3)CC2c2ccc3c(c2)OCO3)cc(OC)c1OC (centres undefined)
2. COc1cc(C(=O)N2N=C(c3ccccc3)CC2c2ccc3c(c2)OCO3)cc(OC)c1OC (centres undefined)
3. COc1cc(C2=NN(C(=O)c3ccc(Cl)cc3)C(c3ccc4c(c3)OCO4)C2)cc(OC)c1OC (centres undefined)
4. COc1ccc(C2=NN(C(=O)c3cc(OC)c(OC)c(OC)c3)C(c3ccc4c(c3)OCO4)C2)cc1OC (centres undefined)
5. COc1ccc(C2=NN(C(=O)c3ccccc3)C(c3ccc4c(c3)OCO4)C2)cc1 (centres undefined)

Response:
1. 1.06
2. 1.19
3. 1.34
4. 0.33
5. 1.55

---

Exercise: state measured IC50 for each of the molecules provided.
- system tested: Tubulin (Bos taurus, UniProt Q6B856+Q862L2+Q862F3)
- procedure summary: Inhibition of bovine brain tubulin polymerization after 20 mins by turbidimetric analysis
Answers are plain numbers, in µM.

Past entries and their recorded results:
COc1cc(C(=O)N2N=C(c3ccc(Br)cc3)CC2c2ccc3c(c2)OCO3)cc(OC)c1OC (centres undefined); 19.45
COc1cc(C(=O)N2N=C(c3ccc(F)cc3)CC2c2ccc3c(c2)OCO3)cc(OC)c1OC (centres undefined); 7.89
COc1ccc(C2=NN(C(=O)c3ccc(F)cc3)C(c3ccc4c(c3)OCO4)C2)cc1 (centres undefined); 7.69
COc1ccc(C2=NN(C(=O)c3cccc(OC)c3)C(c3ccc4c(c3)OCO4)C2)cc1 (centres undefined); 34.77
COc1cc(C(=O)N2N=C(c3cccc(C)c3)CC2c2ccc3c(c2)OCO3)cc(OC)c1OC (centres undefined); 7.08
COc1ccc(C2=NN(C(=O)c3cc(OC)c(OC)c(OC)c3)C(c3ccc4c(c3)OCO4)C2)cc1 (centres undefined); 1.88
COc1cc(C(=O)N2N=C(c3ccc(C)cc3)CC2c2ccc3c(c2)OCO3)cc(OC)c1OC (centres undefined); 10.11
CCOc1ccc(C2=NN(C(=O)c3cc(OC)c(OC)c(OC)c3)C(c3ccc4c(c3)OCO4)C2)cc1 (centres undefined); 2.19
COc1cc(C2=NN(C(=O)c3ccc(Br)cc3)C(c3ccc4c(c3)OCO4)C2)cc(OC)c1OC (centres undefined); 25.06
COc1ccc(C(=O)N2N=C(c3ccc(OC)cc3)CC2c2ccc3c(c2)OCO3)cc1 (centres undefined); 25.79

// for each molecule in input: emit IC50
1. COc1cccc(C2=NN(C(=O)c3cc(OC)c(OC)c(OC)c3)C(c3ccc4c(c3)OCO4)C2)c1 (centres undefined)
2. COc1ccc(C2=NN(C(=O)c3ccc(OC)c(OC)c3)C(c3ccc4c(c3)OCO4)C2)cc1 (centres undefined)
3. COc1cc(C2=NN(C(=O)c3ccc(F)cc3)C(c3ccc4c(c3)OCO4)C2)cc(OC)c1OC (centres undefined)

Response:
1.91
15.73
2.09

---

- system tested: Tubulin (Bos taurus, UniProt Q6B856+Q862L2+Q862F3)
- procedure summary: Inhibition of bovine brain tubulin polymerization after 20 mins by turbidimetric analysis
value type: IC50 (µM)
Answers are plain numbers, in µM.

COc1ccccc1C1=NN(C(=O)c2cc(OC)c(OC)c(OC)c2)C(c2ccc3c(c2)OCO3)C1 (stereo not given); 2.35

Continue with the compound presented below.
Request: Name the reported IC50 value associated with the compound COc1cc(C(=O)N2N=C(c3ccc(Cl)cc3)CC2c2ccc3c(c2)OCO3)cc(OC)c1OC (stereo not given)
Response: 18.02

---

- Tested on: A549
- procedure summary: cells
- measurement setup: Homo sapiens, A549, 24 h
value type: log10 IC50 (log10 of the value in µM)
The common logarithm of IC50 in µM is what is listed.

// for each molecule in input: emit log10 IC50
1. COc1cc(C(=O)N2N=C(c3ccc(Cl)cc3)CC2c2ccc3c(c2)OCO3)cc(OC)c1OC (centres undefined)
2. COc1ccc(C(=O)N2N=C(c3ccc(OC)cc3)CC2c2ccc3c(c2)OCO3)cc1 (centres undefined)
3. COc1cc(C(=O)N2N=C(c3cccc(Cl)c3)CC2c2ccc3c(c2)OCO3)cc(OC)c1OC (centres undefined)

Response:
1. 0.49
2. 0.61
3. 0.85

// for each molecule in input: emit log10 IC50
1. COc1cc(C(=O)N2N=C(c3ccc(C)cc3)CC2c2ccc3c(c2)OCO3)cc(OC)c1OC (centres undefined)
2. COc1cc(C2=NN(C(=O)c3ccc(Br)cc3)C(c3ccc4c(c3)OCO4)C2)cc(OC)c1OC (centres undefined)
3. COc1cc(C(=O)N2N=C(c3cccc(C)c3)CC2c2ccc3c(c2)OCO3)cc(OC)c1OC (centres undefined)
4. COc1ccc(C2=NN(C(=O)c3ccc(OC)c(OC)c3)C(c3ccc4c(c3)OCO4)C2)cc1 (centres undefined)
5. COc1ccc(C2=NN(C(=O)c3ccccc3)C(c3ccc4c(c3)OCO4)C2)cc1 (centres undefined)
6. COc1cc(C(=O)N2N=C(c3cc(OC)c(OC)c(OC)c3)CC2c2ccc3c(c2)OCO3)cc(OC)c1OC (centres undefined)
7. COc1ccc(/C=C\c2cc(OC)c(OC)c(OC)c2)cc1O
8. COc1ccccc1C1=NN(C(=O)c2cc(OC)c(OC)c(OC)c2)C(c2ccc3c(c2)OCO3)C1 (centres undefined)

Response:
0.06
0.62
0.71
0.44
0.72
0.35
-0.85
-0.96

---

Exercise: state measured IC50 for each of the compounds provided.
- system tested: Tubulin (Bos taurus, UniProt Q6B856+Q862L2+Q862F3)
- procedure summary: Inhibition of bovine brain tubulin polymerization after 20 mins by turbidimetric analysis

Past entries and their recorded results:
COc1ccc(C2=NN(C(=O)c3ccc(Cl)cc3)C(c3ccc4c(c3)OCO4)C2)cc1 (stereo not drawn); > 40 µM
O=C(c1ccc(Br)cc1)N1N=C(c2ccc(Cl)cc2)CC1c1ccc2c(c1)OCO2 (stereo not drawn); > 40 µM

Request: Given the entry COc1ccccc1C1=NN(C(=O)c2ccc(Br)cc2)C(c2ccc3c(c2)OCO3)C1 (stereo not drawn) , what IC50 was observed with Tubulin (Bos taurus, UniProt Q6B856+Q862L2+Q862F3)?
Response: > 40 µM

---

Exercise: state measured IC50 for each of the compounds provided.
- system tested: Tubulin (Bos taurus, UniProt Q6B856+Q862L2+Q862F3)
- procedure summary: Inhibition of bovine brain tubulin polymerization after 20 mins by turbidimetric analysis

Past entries and their recorded results:
CCOc1ccc(C2=NN(C(=O)c3ccc(Br)cc3)C(c3ccc4c(c3)OCO4)C2)cc1 (stereo not drawn); > 40 µM
O=C(c1ccc(Br)cc1)N1N=C(c2ccc(Br)cc2)CC1c1ccc2c(c1)OCO2 (stereo not drawn); > 40 µM

Request: Given the entry Cc1ccc(C2=NN(C(=O)c3ccc(Br)cc3)C(c3ccc4c(c3)OCO4)C2)cc1 (stereo not drawn) , what IC50 was observed with Tubulin (Bos taurus, UniProt Q6B856+Q862L2+Q862F3)?
Response: > 40 µM
